- System: SF-268 CNS
- ASSAY_PROCEDURE: NCI tumour cell line growth inhibition, 48 h
The following compounds are shown together with reported TGI values.

compound="Cc1ccc(SCC(CF)OC(C)n2cnc3c(Cl)nc(N)nc32)cc1 (stereo not given)" measured="> 100 µM"
compound=O=[N+]([O-])c1ccc(/C(Cl)=C/c2ccc(/C=C(\Cl)c3ccc([N+](=O)[O-])cc3[N+](=O)[O-])cc2)c([N+](=O)[O-])c1 measured="> 100 µM"

Fill in the blank: the reported TGI of O=C(O)CNCCc1ccccc1 is ____.
> 100 µM

I'd like to know its TGI. The compound in question is Cn1nc(-c2ccccc2)c2c(-c3ccccc3)c3cc(Cl)ccc3nc21
> 100 µM

====

- Tested on: SNB-19 CNS
- ASSAY_PROCEDURE: NCI tumour cell line growth inhibition, 48 h
ASSAY_ENDPOINT: TGI

Previously resolved entries follow.
compound=C/C(=N\O)c1cccc(Nc2cc(-c3ccccc3)nc3c(O)cccc23)c1 assay_endpoint=TGI measured="9.42 µM"
compound=O=C(CCN1CCC(CCO)CC1)Nc1ccc2c(c1)C(=O)c1ccc(NC(=O)CCN3CCC(CCO)CC3)cc1C2=O assay_endpoint=TGI measured="68.8 µM"
compound=Cc1cccc2c1c(=O)c1c(O)cc3c(c1n2C)C=CC(C)(C)O3 assay_endpoint=TGI measured="> 100 µM"
compound="COCC12CCC(OC)C34C5CC6(O)C(OC)C=C(C5C6OC(=O)c5ccccc5)C(C(OC)C13)C4N(C)C2 (configuration not stated)" assay_endpoint=TGI measured="> 100 µM"
compound="O=C1CCCCC1C(O)(C(F)(F)F)C(F)(F)Cl (configuration not stated)" assay_endpoint=TGI measured="> 10 µM"

Now for the compound whose TGI we want.
Consider the compound C#C[C@]1(O)[C@@H](CO)O[C@@H](n2ccc(N)nc2=O)[C@@H]1O and give its measured TGI.
> 24 µM

====

- Test system: PC-3 prostate
- ASSAY_PROCEDURE: NCI tumour cell line growth inhibition, 48 h; in the data active = GI50 below about 0.43 µM; inactive = the rest
Pick one and only one: active, inactive

Recorded results for 5 molecules are shown here.
molecule=N#Cc1c2ccccc2c2nnc3ccccc3n12 label=inactive
molecule=C=C(CN1CCN(c2ccccc2C(F)(F)F)CC1)c1ccc(C(=O)Nc2ccccc2N)cc1 label=inactive
molecule=NCCCNc1nc2ccc(Cl)cc2c2c(=O)c3cc(F)ccc3sc12 label=inactive
molecule="CCN1C(=O)N(CC)C2C1NC(=S)N2/N=C/C=C/c1ccccc1OC (stereo unspecified)" label=active
molecule="COc1cc(/C=C/C(=O)c2ccc(F)cc2)ccc1OCCCCCOc1cc2c(cc1OC)C(=O)N1CCCC1C=N2 (stereo unspecified)" label=active

Record lookup: outcome of this test for Cc1cc(C(O)(c2ccc(Nc3ccccc3)cc2)c2ccc(Nc3ccc(S(=O)(=O)O)cc3)cc2)ccc1N (stereo unspecified) ?
inactive

State the result this test recorded for N#C/C(=C\c1ccc(F)cc1)n1nc2cccc(F)c2n1 .
inactive

Dear all, I need the recorded test outcome for CCCOc1ccc(/C=N/Nc2cc(C)nc3ccc(Cl)cc23)cc1 , thank you.
inactive

Recorded test outcome, item Cn1c(NCC(CN2CCCC2)OC(=O)c2ccccc2)cc(=O)n(C)c1=O (stereo unspecified)
inactive

What outcome does the record of this test show for CCCCN(CC)CCCCCCCCCCN1CCCc2cc(OC)ccc21 ?
inactive

How was CCOC(=O)[C@@H](C)C[C@H](Cc1ccccc1)NC(=O)c1csc([C@@H](C[C@H](C(C)C)N(C)C(=O)[C@@H](NC(=O)[C@H]2C[C@H](O)CCN2C)C(C)C)OC(C)=O)n1 classified in this test?
active

====

- Tested on: RXF 393 renal
- ASSAY_PROCEDURE: NCI tumour cell line growth inhibition, 48 h; in the data active = GI50 below about 0.43 µM; inactive = the rest
Result category, one only: active, inactive

compound=O=C(c1cccs1)c1nc2cc(Cl)ccc2[n+]([O-])c1C(F)(F)F label=inactive
compound=FC(F)(F)c1cc(-c2ncn(/C=C\c3nnco3)n2)cc(C(F)(F)F)c1 label=active
compound=O=C1NC(=O)C(c2ccccc2)=C1Nc1ccccc1 label=inactive
compound=CCCOc1ccc(/C=N/Nc2cc(C)nc3ccc(Cl)cc23)cc1 label=inactive
compound=COc1ccc(/C=C/C(=O)c2ccc(Nc3nc(Nc4ccc(F)cc4)nc(Nc4ccc(Cl)cc4)n3)cc2)cc1 label=inactive

Check the results log: what was the call for O=C(O)c1cn(C2CC2)c2cc(N3CCN(C(=O)Nc4nc(-c5ccc(Br)cc5)cs4)CC3)c(F)cc2c1=O ?
inactive

Give the logged outcome of this assay for the following compound: O=C(O)c1ccc(C(=O)O)c(C(=O)O)c1.[NH-]C1CCCCC1[NH-].[Pt+2]
inactive

Field: outcome | Entry: O=Cc1ccc(-c2ccc(-c3ccc(C=O)o3)[se]2)o1
inactive

Please state the recorded outcome for this compound: CC(=O)OCC1OC([Se-])C(OC(C)=O)C(OC(C)=O)C1OC(C)=O.N#CCC[PH+](CCC#N)CCC#N.[Au+] (stereo not drawn)
inactive

Please indicate how the test categorized c1ccc(-c2cn(-c3ccccc3)c(-c3ccccc3)n2)cc1 .
inactive

Any idea what this test logged for NC(=O)CCc1ccccc1Oc1nccc(-c2c(-c3ccc(F)cc3)ncn2C2CCNCC2)n1 ?
inactive

Write down the call the test reported for this compound. Item: C=C(CN1CCN(c2ccccc2C(F)(F)F)CC1)c1ccc(C(=O)Nc2ccccc2N)cc1
inactive

Could you check what this test reported for CCN1C(=O)N(CC)C2C1NC(=S)N2/N=C/C=C/c1ccccc1OC (stereo not drawn) ?
active

====

- System: NCI/ADR-RES ovarian
- ASSAY_PROCEDURE: NCI tumour cell line growth inhibition, 48 h
ASSAY_ENDPOINT: TGI

Solved entries:
compound=O=C(O)CNCCc1ccccc1 measured="> 100 µM"
compound=O=C(Oc1c(Br)cc(Br)cc1C(=O)Oc1ccccc1)C(=O)Oc1c(Br)cc(Br)cc1C(=O)Oc1ccccc1 measured="> 100 µM"

For the next question, use this compound.
Name the reported TGI value associated with the compound CCOC(=O)Nc1ccc2c(c1)N(C(=O)CCN(CC)CC)c1ccccc1S2
86.8 µM

====

- Tested on: LOX IMVI melanoma
- ASSAY_PROCEDURE: NCI tumour cell line growth inhibition, 48 h; in the data active = GI50 below about 0.43 µM; inactive = the rest
Return exactly one item of label 1 (active), label 0 (inactive)

molecule=NCCCNc1nc2ccc(Cl)cc2c2c(=O)c3cc(F)ccc3sc12 label="label 0"
molecule=CC(C)OCc1cc(CN2CCN(c3cccc(Cl)c3)CC2)c(O)c2ncccc12 label="label 1"
molecule=COc1ccc(/C=C/C(=O)c2ccc(Nc3nc(Nc4ccc(F)cc4)nc(Nc4ccc(Cl)cc4)n3)cc2)cc1 label="label 0"
molecule=O=C1/C(=C\c2ccccc2)CN(C(=O)c2ccccc2)C/C1=C\c1ccccc1 label="label 0"
molecule="Cn1c(NCC(CN2CCCC2)OC(=O)c2ccccc2)cc(=O)n(C)c1=O (configuration not stated)" label="label 0"

Which outcome did this test record for the molecule CCC(C)(C)[C@H](NC(=O)[C@H]1CCCCN1C)C(=O)N(C)[C@H](C[C@@H](OC(C)=O)c1nc(C(=O)N[C@@H](Cc2ccccc2)C[C@H](C)C(=O)O)cs1)C(C)C ?
label 1

// outcome(item) with item = CCCOc1ccc(/C=N/Nc2cc(C)nc3ccc(Cl)cc23)cc1
label 0

====

- Test system: COLO 205 colon
- ASSAY_PROCEDURE: NCI tumour cell line growth inhibition, 48 h
ASSAY_ENDPOINT: GI50

In the examples that follow, each entry is paired with its recorded GI50.
smiles_str=COc1cc2c3c(n(CCCN4CCCNCC4)c(=O)c2cc1OC)-c1cc2c(cc1C3=O)OCO2 assay_endpoint=GI50 measured="2.21 µM"
smiles_str=NCCCNc1nc2ccc(Cl)cc2c2c(=O)c3cc(F)ccc3sc12 assay_endpoint=GI50 measured="2.71 µM"

Then there is this compound:
Please give the measured GI50 for this compound: COc1cc(/C=C/C(=O)c2c(C)nc3ccccc3c2C)ccc1OCCCCOc1cc2c(cc1OC)C(=O)N1CCC[C@H]1C=N2
0.74 µM

====

In this section we review reported TGI values for a set of molecules.
- System: NCI-H23 lung
- ASSAY_PROCEDURE: NCI tumour cell line growth inhibition, 48 h

Examples with answers:
molecule=O=C(/C=C/c1nnc2n(Cc3ccccc3)c(=O)c3c4c(sc3n12)CCCC4)c1ccccc1 tested_target="NCI-H23 lung" measured="> 100 µM"
molecule="CCC(c1ccc(OC)cc1)C1NC(=S)NC1=O (stereo unspecified)" tested_target="NCI-H23 lung" measured="> 50 µM"
molecule="CO[C@H]1O[C@@H]2OC3(C)CCC4[C@H](C)CCC([C@H]1C)[C@]42OO3 (stereo partly specified)" tested_target="NCI-H23 lung" measured="> 100 µM"
molecule=Cc1cccc2c1c(=O)c1c(O)cc3c(c1n2C)C=CC(C)(C)O3 tested_target="NCI-H23 lung" measured="> 100 µM"
molecule=CC(=O)CC(=O)NC=O tested_target="NCI-H23 lung" measured="> 100 µM"

Could you now look at the following molecule, please?
GET /values?readout=TGI&item= CCN1C(=O)N(CC)C2C1NC(=S)N2/N=C/C=C/c1ccccc1OC (stereo unspecified)
> 100 µM
